# Test system: K24384-001-R-PDC complex spheroids, viability
# EXPERIMENT SUMMARY: Anticancer human tumor K24384-001-R-PDC patient-derived pancreatic adenocarcinoma cell line growth inhibition [GQUAD]
# TEST SETTINGS: second compound 1 µM; first compound 0.1 µM; stronger effect = lower value
The following compounds are listed with their measured viability, T/C values.
MEASURED ATTRIBUTE: viability, T/C (%)

1) C=CCn1c(=O)c2cnc(Nc3ccc(N4CCN(C)CC4)cc3)nc2n1-c1cccc(C(C)(C)O)n1 + Cc1cnc(CNC(=O)c2c(=O)c3ccc(N4CCCN(C)CC4)nc3n3c2sc2ccccc23)cn1; 49.7
2) Cc1cccc(N(C)C(=O)C2C(O)CCN2c2nc(C)cc(C(F)(F)F)c2C#N)c1 (stereo not given) + CN(C)c1ccc(Nc2c3ccc(NC(=O)CCN4CCCC4)cc3nc3cc(NC(=O)CCN4CCCC4)ccc23)cc1; 83.6
3) CC(C)(O)C1CCC(Nc2ccc3ncc(-c4cccc(C(F)(F)F)c4)n3n2)CC1 (stereo not given) + Cc1[nH]c2ccc(F)cc2c1-c1nc2c3cccnc3c3ncccc3c2[nH]1; 99
4) CC1COCCN1c1cc(C2(O)CC3CCC(C2)O3)c2cnn(-c3ccn[nH]3)c2n1 (stereo not given) + Cc1[nH]c2ccc(F)cc2c1-c1nc2c3cccnc3c3ncccc3c2[nH]1; 59.7
5) CC1COCCN1c1cc(-c2ccnn2C)c2ccnc(-c3ccn[nH]3)c2n1 (stereo not given) + Cc1cnc(CNC(=O)c2c(=O)c3ccc(N4CCCN(C)CC4)nc3n3c2sc2ccccc23)cn1; 35.2

* * *

The following molecules are listed with their measured viability, T/C values.
# Test system: K24384-001-R-PDC complex spheroids, viability
# EXPERIMENT SUMMARY: Anticancer human tumor K24384-001-R-PDC cell line growth inhibition [GQUAD];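 also: spheroids exposed to compounds for seven days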
# TEST SETTINGS: second compound 3.16 µM; first compound 10 µM; stronger effect = lower value
MEASURED ATTRIBUTE: viability, T/C (%)

1) COc1cccc2c1C(=O)c1c(O)c3c(c(O)c1C2=O)CC(O)(C(=O)CO)CC3OC1CC(N)C(O)C(C)O1 (configuration not stated) + Cc1cnc(CNC(=O)c2c(=O)c3ccc(N4CCCN(C)CC4)nc3n3c2sc2ccccc23)cn1; 1.49
2) CC(=O)O[C@H]1C(=O)[C@@]2(C)[C@H]([C@H](OC(=O)c3ccccc3)[C@]3(O)C[C@H](OC(=O)[C@H](O)[C@@H](NC(=O)c4ccccc4)c4ccccc4)C(C)=C1C3(C)C)[C@]1(OC(C)=O)CO[C@@H]1C[C@@H]2O + Cc1[nH]c2ccc(F)cc2c1-c1nc2c3cccnc3c3ncccc3c2[nH]1; 18.1

* * *

# Test system: K24384-001-R-PDC complex spheroids, viability
# EXPERIMENT SUMMARY: Anticancer human tumor K24384-001-R-PDC cell line growth inhibition [GQUAD];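 also: spheroids exposed to compounds for seven days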
# TEST SETTINGS: curve of first compound; second compound 0.1 µM
pIC50: −log10 of the molar value.
MEASURED ATTRIBUTE: pIC50

1. Cc1[nH]c2ccccc2c1CCNCc1ccc(/C=C/C(=O)NO)cc1 + Cc1[nH]c2ccc(F)cc2c1-c1nc2c3cccnc3c3ncccc3c2[nH]1; 6.86
2. Nc1ccn(C2OC(CO)C(O)C2(F)F)c(=O)n1 (stereo not given) + Cc1[nH]c2ccc(F)cc2c1-c1nc2c3cccnc3c3ncccc3c2[nH]1; 6.68
3. COc1cccc2c1C(=O)c1c(O)c3c(c(O)c1C2=O)CC(O)(C(=O)CO)CC3OC1CC(N)C(O)C(C)O1 (stereo not given) + Cc1cnc(CNC(=O)c2c(=O)c3ccc(N4CCCN(C)CC4)nc3n3c2sc2ccccc23)cn1; 6.78
4. COc1ccc([C@@H](O)c2cc(-c3ncnc4cc(N5CCOCC5)ccc34)c(F)cc2Cl)nn1 + Cc1[nH]c2ccc(F)cc2c1-c1nc2c3cccnc3c3ncccc3c2[nH]1; 5.61
5. COc1cc(C2c3cc4c(cc3C(OC3OC5COC(C)OC5C(O)C3O)C3COC(=O)C23)OCO4)cc(OC)c1O (stereo not given) + Cc1cnc(CNC(=O)c2c(=O)c3ccc(N4CCCN(C)CC4)nc3n3c2sc2ccccc23)cn1; 5.62
